Biological target: T1, Claudin 18.2 (CLDN18.2), expressed on CHOS-CLDN 18.2 / HEK293-CLDN 18.2 / HCC827-CLDN 18.2 cells (human, UniProt P56856-2 1-261)
T1 construct: whole, on cells; The species is not repeated for the CHOS-CLDN 18.2 cells; also called claudin-18A2
Assay: FACS, CHOS-CLDN18.2 cells
Collected EC50 values appear next to each entry.
# output: bare number, implied unit µg/mL

# lookup: EC50 of QP024025 (antibody, human IgG1, V domains shown, also called IMAB362; 175D10(IMAB362)) VH: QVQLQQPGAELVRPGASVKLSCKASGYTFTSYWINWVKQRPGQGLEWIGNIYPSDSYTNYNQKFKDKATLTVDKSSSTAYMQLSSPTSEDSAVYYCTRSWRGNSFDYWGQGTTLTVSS VL: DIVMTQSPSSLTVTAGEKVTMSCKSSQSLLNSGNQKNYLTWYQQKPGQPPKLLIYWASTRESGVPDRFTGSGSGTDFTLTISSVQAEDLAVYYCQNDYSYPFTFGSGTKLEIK 0.27

# lookup: EC50 of QP14561454 (antibody, human IgG1, kappa, V domains shown, Humanized from QP201202) VH: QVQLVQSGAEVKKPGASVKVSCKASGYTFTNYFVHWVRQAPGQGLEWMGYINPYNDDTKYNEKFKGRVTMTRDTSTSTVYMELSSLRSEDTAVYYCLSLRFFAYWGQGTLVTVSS VL: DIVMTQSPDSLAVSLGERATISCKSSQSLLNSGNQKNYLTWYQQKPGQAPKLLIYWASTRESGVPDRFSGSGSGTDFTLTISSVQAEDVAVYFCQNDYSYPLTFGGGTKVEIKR 0.573

# lookup: EC50 of QP14581453 (antibody, human IgG1, kappa, V domains shown, Humanized from QP201202) VH: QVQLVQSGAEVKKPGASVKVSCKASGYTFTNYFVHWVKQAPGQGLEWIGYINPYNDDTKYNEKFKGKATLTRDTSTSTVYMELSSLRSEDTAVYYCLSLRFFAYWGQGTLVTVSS VL: DIVMTQSPDSLAVSLGERATISCKSSQSLLNSGNQKNYLTWYQQKPGQAPKLLIYWASTRESGVPDRFSGSGSGTDFTLTISSLQAEDVAVYYCQNDYSYPLTFGGGTKVEIKR 0.425

# lookup: EC50 of QP14581454 (antibody, human IgG1, kappa, V domains shown, Humanized from QP201202) VH: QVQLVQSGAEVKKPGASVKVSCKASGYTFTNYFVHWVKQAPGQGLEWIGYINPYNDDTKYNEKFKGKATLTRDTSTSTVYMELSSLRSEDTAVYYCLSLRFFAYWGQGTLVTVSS VL: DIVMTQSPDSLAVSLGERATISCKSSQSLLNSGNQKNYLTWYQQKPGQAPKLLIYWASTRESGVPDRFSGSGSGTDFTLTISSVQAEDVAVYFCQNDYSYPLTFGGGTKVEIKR 0.363
